assay: HepG2 cytotoxicity, primary screen, cytotoxicity control for P. falciparum antimalarial project, cell-based, ATP luminescence (AID 2303); settings: HepG2 viability, 24-48 h, at 10 µM, active compounds read high;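 note: 0% = DMSO wells and 100% = digitonin-killed cells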
Reported Endpoint: inhibition (%)
The answer is to be given in %; state only the numeric part.

Returns the measured inhibition for the input compound. Input: "CCNc1cc(C(=O)N[C@@H](Cc2ccccc2)[C@H](O)CNC2(C(C)C)CCC2)cc(N2CCCCS2(=O)=O)c1"
-3

For Cc1cccc(CC2CC(=O)N(c3ccc([N+](=O)[O-])cc3)C2=O)c1 (centres undefined) , what is its reported inhibition?
11

====

experiment: inhibition of 3D7 malaria parasite growth – strain 3D7 (AID 2306);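 note: 0% = DMSO wells and 100% = chloroquine plus artemisinin control wells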; conditions: P. falciparum 3D7 erythrocytic growth, LDH absorbance, 72 h; at 2 µM; active compounds read high
Reported growth inhibition by item:
Reply numerically in %, unit not repeated.

| Compound | Reported Endpoint | Readout Number |
| --- | --- | --- |
| O=C(C=Cc1ccc(Cl)c(Cl)c1)NCCCCCN1CCC(c2[nH]nc3ccccc23)CC1 | growth inhibition | 99 |

Which value of growth inhibition has been reported for CN1CCCC(CN2CCN(Cc3ccc(-c4ccc(-c5nc6ccccc6[nH]5)cc4)cc3)CC2)C1 (centres undefined) in the records?
101

# input compound: "CN(CCCNc1ccc(C(=O)Nc2ccc(C(F)(F)F)cc2)cc1[N+](=O)[O-])Cc1ccccc1" ; wanted: its growth inhibition
100

Query (compound): "COc1cc(F)c2nccc([C@@H](O)CN3CCC(NCc4cc5c(cc4F)OCCO5)CC3)c2c1" ; field requested: growth inhibition
99

Returns the measured growth inhibition for the input compound. Input: "Fc1cc(Cl)ccc1Nc1ccnc2cc(-c3scnc3CNCCN3CCOCC3)ccc12"
99

Look up growth inhibition for this compound: CN1CCC(Oc2ccc(CN3CC[C@H](NC(=O)c4ccc(F)c(F)c4)C3)c3ccccc23)C1 (some centres undefined)
91

What value of growth inhibition has been recorded for this entry: CC(=O)c1ccc(NC(=O)C2c3ccccc3C(=O)N(CC(C)C)C2c2cccs2)cc1 (centres undefined)
99

What value of measured growth inhibition is listed for Cc1ccc2[nH]ncc2c1N(CC1CCCCC1)c1ccnc(Nc2ccc(OCC(O)CN3CC=CCC3)cc2)n1 (centres undefined) ?
100

Fill in the blank: the reported growth inhibition of "O=C(NCCCCN1CCN(CC=Cc2ccccc2)CC1)c1ccc(NC(=O)c2cc(Cl)cc(Cl)c2)cc1" is ____.
100

So what does the record say about growth inhibition for "CN(C)Cc1c(O)ccc2[nH]c(-c3ccc(F)cc3F)nc12" ?
99

====

test: HepG2 cytotoxicity, primary screen, cytotoxicity control for P. falciparum antimalarial project, cell-based, ATP luminescence (AID 2303); conditions: HepG2 viability, 24-48 h, at 10 µM, active compounds read high;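 note: 0% = DMSO wells and 100% = digitonin-killed cells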
The source made the active and inactive calls.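 Rule for the calls: active = inhibition above 50%; inactive = the rest.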
Reported Endpoint: inhibition

| Molecule | inhibition |
| --- | --- |
| O=C(Nc1ccc(Cl)c(Cl)c1)Nc1ccc2c(c1)CCNCC2 | 13% (inactive) |
| c1cc(CNCCc2ccncc2)cc(-c2ccc(-c3nc4ccccc4[nH]3)cc2)c1 | 28% (inactive) |
| Cc1cc(F)ccc1N(c1nc(-c2cc(Cl)ccc2Cl)cs1)C1CCNC1 (centres undefined) | 19% (inactive) |

What value of measured inhibition is listed for "Cc1cc(NN=Cc2ccc(F)cc2)c2ccc(F)cc2n1" ?
-7% (inactive)

Fill in the blank: the reported inhibition of COC1CCC(C(=O)Nc2ccc(-c3cccc(-c4nc5c(C)cccc5[nH]4)c3)cc2)CC1 (centres undefined) is ____.
89% (active)

What inhibition value was documented for this molecule, "CS(=O)(=O)NCCCNCc1ccc(-c2cccc(-c3nc4ccc(C(F)(F)F)cc4[nH]3)c2)cc1" ?
17% (inactive)
